Record type: IC50 measurement. Applies to: Inosine-5'-monophosphate dehydrogenase 2 (Homo sapiens, UniProt P12268)

Below are worked cases with known answers.
- COMPOUND: "CCC(CC#N)OC(=O)N[C@@H](C)c1cccc(NC(=O)COc2ccc(OC)c(OC)c2)c1 (stereo partly drawn)"
  IC50: "< 30 µM"
- COMPOUND: "CCC(CC#N)OC(=O)N[C@@H](C)c1cccc(NC(=O)N2CCN(c3ccc(C#N)c(OC)c3)CC2)c1 (stereo partly drawn)"
  IC50: "< 30 µM"

The compound COc1cc(N/C(=N/C#N)Nc2cccc(-c3ccccc3F)c2)ccc1C#N on Inosine-5'-monophosphate dehydrogenase 2 (Homo sapiens, UniProt P12268): IC50 was < 30 µM
